Can you tell me Kd for the items I'm about to list?
target: HIV RT (HIV, UniProt P04585;P04585 588-1147;588-1027); assay: primer extension with trap; 6 mM Mg2+; Primer extension: 50 mM Tris-HCl pH 8.0, 80 mM KCl, 6 mM MgCl2, 1 mM DTT, 0.1 mg/ml BSA, room temperature, 1 nM duplex; filter binding: Tris-HCl pH 8.0, 80 mM KCl, 1 mM DTT, without Mg2+ (wt) or 6 mM Mg2+ (E478Q), room temperature, 5 nM hybrid (Table 1 units nM inferred); settings: protein: commercial; copies: 1;1; label: 5'-32P primer; 41 nt primer on 45 nt template, 5' overhang 4 nt (template)
Give just the number in nM; leave the unit off.

Lab note: HIV DNA PPT (41/45) (dsDNA) DNA 1: GCCTGCAGGTCGACTCTAGACTTTTTAAAAGAAAAGGGGGG DNA 2: CAGTCCCCCCTTTTCTTTTAAAAAGTCTAGAGTCGACCTGCAGGC gave Kd of 3.2

Lab note: AMV DNA PPT (dsDNA) DNA 1: GCCTGCAGGTCGACTCTAGAGCTTTTGCATAGGGAGGGGGA DNA 2: CATTTCCCCCTCCCTATGCAAAAGCTCTAGAGTCGACCTGCAGGC gave Kd of 8.2

Lab note: MuLV DNA PPT (dsDNA) DNA 1: GCCTGCAGGTCGACTCTAGATAGTCTCCAGAAAAAGGGGGG DNA 2: CATTCCCCCCTTTTTCTGGAGACTATCTAGAGTCGACCTGCAGGC gave Kd of 3.5

Lab note: TY3 DNA PPT (dsDNA) DNA 1: GCCTGCAGGTCGACTCTAGAGACAACCCTGAGAGAGAGGAA DNA 2: CATCTTCCTCTCTCTCAGGGTTGTCTCTAGAGTCGACCTGCAGGC gave Kd of 57
